experimental_target: T1, human IL22R on BW-hIL22R cells (human, UniProt Q8N6P7 16-574)
T1 sequence (looked up): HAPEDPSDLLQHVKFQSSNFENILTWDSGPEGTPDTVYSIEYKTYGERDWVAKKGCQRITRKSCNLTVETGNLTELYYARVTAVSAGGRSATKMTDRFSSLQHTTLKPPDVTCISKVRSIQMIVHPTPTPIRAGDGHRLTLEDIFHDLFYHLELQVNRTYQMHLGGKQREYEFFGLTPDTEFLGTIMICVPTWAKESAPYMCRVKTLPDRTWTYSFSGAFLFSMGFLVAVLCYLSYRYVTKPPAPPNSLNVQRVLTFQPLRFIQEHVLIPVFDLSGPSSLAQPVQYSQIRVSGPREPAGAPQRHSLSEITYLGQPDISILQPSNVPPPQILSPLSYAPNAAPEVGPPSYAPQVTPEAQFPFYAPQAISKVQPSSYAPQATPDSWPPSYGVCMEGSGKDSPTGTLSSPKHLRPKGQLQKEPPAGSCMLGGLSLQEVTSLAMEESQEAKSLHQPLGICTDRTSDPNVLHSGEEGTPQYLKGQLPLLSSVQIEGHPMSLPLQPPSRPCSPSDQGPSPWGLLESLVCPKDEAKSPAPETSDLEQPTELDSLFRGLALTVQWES
assay_notes: cell-based or functional assay
parameter_measured: Potency (pM) BW-hIL22R
Enter your answer as a number in pM; do not include the unit.

Illustrative cases are given below, each with its answer.
>  <binder>
197D3 (antibody, V domains shown, Vkappa-shuffled clone of 170B2 (keeps the 170B2 VH-CH1); also called VK_197D3) VH: EVQLVESGGGLVQPGGSLRLSCAASGFTFSSSWMYWVRQAPGKGLEFVSVINTRSGITHYVESVKGRFTISTDNAKNTLFLQMNSLKSEDTAVYYCATRIQGLIDYWGQGTQVTVSS VL: DIQMTQSPSSLSASLGDRVTVTCQASQSIRSSLNWYQQKPGQAPKLLIYGASRLRIGVPSRFSGSASGTSFTLTISGVEAEDLATYYCLQEYAWPLTFGQGTKVELK

>  <unit_string>
pM

>  <Potency (pM) BW-hIL22R>
57

$$$$
>  <binder>
196F8 (antibody, V domains shown, Vkappa-shuffled clone of 170B2 (keeps the 170B2 VH-CH1); also called VK_196F8) VH: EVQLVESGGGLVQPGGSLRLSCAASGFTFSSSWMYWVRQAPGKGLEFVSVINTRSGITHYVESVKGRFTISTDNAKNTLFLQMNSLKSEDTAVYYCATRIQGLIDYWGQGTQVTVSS VL: DIQMTQSPSSLSASLGDRVTITCQASQSISSMLAWYQQKPGQAPNLLIYGASRLQTGVPSRFSGSRSGTSFTLTISGVEAEDLATYYCLQDYSWPLTFGQGTKVELK

>  <unit_string>
pM

>  <Potency (pM) BW-hIL22R>
87

$$$$

Turning to the following binder.
Q: Requested read-out: Potency (pM) BW-hIL22R. Entry: 197B7 (antibody, V domains shown, Vkappa-shuffled clone of 170B2 (keeps the 170B2 VH-CH1); also called VK_197B7) VH: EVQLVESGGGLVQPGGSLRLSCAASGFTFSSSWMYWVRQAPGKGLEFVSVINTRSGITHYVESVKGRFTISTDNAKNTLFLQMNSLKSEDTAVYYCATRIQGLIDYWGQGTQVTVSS VL: DIVMTQSPSSLSASLGDRVTITCQASQSIRSFIDWYQQKPGQAPKLLIYGTSRLETGVPSRFSGTGSGTSFTLTISGVEAEDLATYYCLQDYSWPLTFGQGTKVELK
Ans: 69

Value source: patent US20150203840A1
